# TGT: Mu-type opioid receptor (Homo sapiens, UniProt P35372)
# Sequence (P35372 whole entry): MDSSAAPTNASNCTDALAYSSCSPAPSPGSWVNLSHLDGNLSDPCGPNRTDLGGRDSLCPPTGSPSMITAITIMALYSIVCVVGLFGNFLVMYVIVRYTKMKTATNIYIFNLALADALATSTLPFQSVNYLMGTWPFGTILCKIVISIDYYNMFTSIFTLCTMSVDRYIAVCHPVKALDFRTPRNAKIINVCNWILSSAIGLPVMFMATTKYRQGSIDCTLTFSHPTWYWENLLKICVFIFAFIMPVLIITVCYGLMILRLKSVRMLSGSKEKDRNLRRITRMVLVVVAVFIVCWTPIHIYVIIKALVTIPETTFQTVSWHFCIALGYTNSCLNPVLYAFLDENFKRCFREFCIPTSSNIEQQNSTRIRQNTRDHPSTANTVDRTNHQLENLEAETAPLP
ENDPOINT: pKi
pKi is a log-scale quantity: -log10 of the concentration expressed in molar.

What does the record list as pKi for `c1ccc(CNc2ccc3c(c2)[C@@]24CCCC[C@H]2[C@@H](C3)N(CC2CC2)CC4)cc1` ?
9.59

What does the record list as pKi for `O=C(Nc1ccccc1)Nc1ccc2c(c1)[C@@]13CCCC[C@H]1[C@@H](C2)N(CC1CC1)CC3` ?
8.41

What does the record list as pKi for `Ic1ccc(CNc2ccc3c(c2)[C@@]24CCCC[C@H]2[C@@H](C3)N(CC2CCC2)CC4)cc1` ?
8.27

What does the record list as pKi for `CCN(CCCCCCN(CC)Cc1cc2c(cc1O)[C@@]13CCCC[C@H]1[C@@H](C2)N(CC1CCC1)CC3)Cc1cc2c(cc1O)[C@@]13CCCC[C@H]1[C@@H](C2)N(CC1CCC1)CC3` ?
7.19
